SETUP_CONDITIONS: 298.15 K; 101.33 kPa; Liquid; Cone and plate viscometry
QUANTITY_MEASURED: viscosity (mPa·s)
Give bare numbers, in mPa·s.

Worked examples follow.
MOLECULE	SCALE_UNIT	viscosity
CCCC[P+](CC)(CC)CC.Cc1ncc([N+](=O)[O-])[n-]1 [butyltriethylphosphonium 2-methyl-5-nitroimidazolide]	mPa·s	391
CCCCCCCCCCCCCC[P+](CCCCCC)(CCCCCC)CCCCCC.Cc1ncc([N+](=O)[O-])[n-]1 [trihexyl(tetradecyl)phosphonium 2-methyl-5-nitroimidazolide]	mPa·s	1110
CCCCCCCCCCCCCC[P+](CCCCCC)(CCCCCC)CCCCCC.O=[N+]([O-])c1c[n-]cn1 [trihexyl(tetradecyl)phosphonium 4-nitroimidazolide]	mPa·s	735
CCCC[S+]1CCCCC1.O=S(=O)([N-]S(=O)(=O)C(F)(F)F)C(F)(F)F [1-butylthianium bis(trifluoromethylsulfonyl)imide]	mPa·s	112
CCCCCCCC[P+](CC)(CC)CC.O=[N+]([O-])c1c[n-]cn1 [triethyloctylphosphonium 4-nitroimidazolide]	mPa·s	276

Batch request: viscosity per item, same order as input.
1. CCCCCC[n+]1ccn(C)c1.O=S(=O)([N-]S(=O)(=O)C(F)(F)F)C(F)(F)F
2. CCCCCCn1cc[n+](C)c1.O=[N+]([O-])c1cn[n-]c1 [1-hexyl-3-methylimidazolium 4-nitropyrazolide]
3. CCCCCCCCCC[P+](CC)(CC)CC.O=[N+]([O-])c1cn[n-]c1 [decyltriethylphosphonium 4-nitropyrazolide]
4. CC[P+](CC)(CC)COCCOC.O=[N+]([O-])c1cn[n-]c1
5. CCC=C[P+](CC)(CC)CC.O=[N+]([O-])c1cn[n-]c1 [(buten-1-yl)triethylphosphonium 4-nitropyrazolide]
6. CCCCCCSC(N(C)C)=[N+](C)C.O=S(=O)([N-]S(=O)(=O)C(F)(F)F)C(F)(F)F

A.
1: 68; 2: 407; 3: 325; 4: 88; 5: 134; 6: 85

Batch request: viscosity per item, same order as input.
1. CC(=O)[O-].CCCCCCn1cc[n+](C)c1 [3-hexyl-1-methylimidazolium acetate]
2. CCC[n+]1ccn(C)c1C.O=[N+]([O-])c1cn[n-]c1 [1,2-dimethyl-3-propylimidazolium 4-nitropyrazolide]
3. CCC=Cn1cc[n+](C)c1C.O=[N+]([O-])c1cn[n-]c1 [1-but-1-enyl-2,3-dimethylimidazolium 4-nitropyrazolide]
4. CC[P+](CC)(CC)COCCOC.Cc1ncc([N+](=O)[O-])[n-]1
5. CCCCCCCC[P+](CC)(CC)CC.O=[N+]([O-])c1cn[n-]c1 [triethyloctylphosphonium 4-nitropyrazolide]
6. CCCCCCCCSC(N(C)C)=[N+](C)C.O=S(=O)([N-]S(=O)(=O)C(F)(F)F)C(F)(F)F
7. CCCCCCn1cc[n+](C)c1.N#Cc1ccc[n-]1 [1-hexyl-3-methylimidazolium 2-cyanopyrrolide]
8. CCCC[n+]1cccn1C.O=S(=O)([N-]S(=O)(=O)C(F)(F)F)C(F)(F)F [1-butyl-2-methylpyrazolium bis(trifluoromethylsulfonyl)imide]

A.
1: 1270; 2: 722; 3: 590; 4: 140; 5: 238; 6: 108; 7: 239; 8: 70
